# target under test: Human P2Y12 receptor (Homo sapiens)
# Construct: expressed in transfected cells; host or cells: HEK cells
# experiment summary: Human P2Y12 receptor cell membrane binding assay with [3H] 2-Mes-ADP
# protocol conditions: 1 nM [3H] 2-Mes-ADP, membranes of HEK cells expressing P2Y12 receptor; read-out: Binding activity (IC50)
Rule for this label: Satisfied means IC50 is less than 0.1 µM; Not satisfied means IC50 is at least 0.1 µM.

A selection of reference data follows.
Enquiry: Below 0.1 µM on IC50? Entry `CCCc1cc2c(N3CCn4c(nnc4C(F)(F)F)C3)nc(OCc3ccncc3)nc2s1`
Return: Not satisfied

Enquiry: Below 0.1 µM on IC50? Entry `CCCc1cc2c(N3CCn4c(nnc4C(F)(F)F)C3)nc(OCCNC(=O)CN)nc2s1`
Return: Not satisfied

Enquiry: Below 0.1 µM on IC50? Entry `CCCc1cc2c(N3CCn4c(nnc4C(F)(F)F)C3)nc(N3CCC[C@H]3C(=O)OC(C)C)nc2s1`
Return: Not satisfied

Enquiry: Below 0.1 µM on IC50? Entry CCCc1cc2c(N3CCn4c(nnc4C(F)(F)F)C3)nc(N3CC(=O)C(N)C3)nc2s1 (centres unmarked)
Return: Not satisfied

Enquiry: Below 0.1 µM on IC50? Entry `CCCc1cc2c(N3CCn4c(nnc4C(F)(F)F)C3)nc(-c3nc(CO)cs3)nc2s1`
Return: Satisfied

Further cases:
Enquiry: Below 0.1 µM on IC50? Entry `CCCc1cc2c(N3CCn4c(nnc4C(F)(F)F)C3)nc(OCCNC(=O)COC)nc2s1`
Return: Satisfied

Enquiry: Below 0.1 µM on IC50? Entry `CCCc1cc2c(N3CCn4c(nnc4C(F)(F)F)C3)nc(N3CCc4[nH]ncc4C3)nc2s1`
Return: Satisfied

Enquiry: Below 0.1 µM on IC50? Entry `CCc1cc2c(N3CCc4[nH]ncc4C3)nc(N3CCNC(=O)C3)nc2s1`
Return: Not satisfied

---

# target under test: Human P2Y12 receptor (Homo sapiens)
# Construct: expressed in transfected cells; host or cells: HEK cells
# experiment summary: Human P2Y12 receptor cell membrane binding assay with [3H] 2-Mes-ADP
# protocol conditions: 1 nM [3H] 2-Mes-ADP, membranes of HEK cells expressing P2Y12 receptor; read-out: Binding activity (IC50)
Give measured IC50 for each item. Keep answers brief.
Numbers only, in nM.

Enquiry: Would you mind telling me what IC50 value was observed for `CCCc1cc2c(N3CCn4c(nnc4C(F)(F)F)C3)nc(N3CCC[C@H](N)C3)nc2s1` ?
Return: 150

Enquiry: Would you mind telling me what IC50 value was observed for `CCCc1cc2c(N3CCn4c(nnc4C(F)(F)F)C3)nc(N3CC[C@H](C(=O)OCOC(=O)C(C)(C)C)C3)nc2s1` ?
Return: 440

Enquiry: Would you mind telling me what IC50 value was observed for `CCCCc1cc2c(N3CCn4c(nnc4C(F)(F)F)C3)nc(NCCO)nc2s1` ?
Return: 240

Hi! Can you tell me IC50 for each of these compounds?
1. CCc1cc2c(N3CCc4c(nc(-c5ccccc5)nc4C(F)(F)F)C3)nc(N3CCNC(=O)C3)nc2s1
2. CCCc1cc2c(N3CCn4c(nnc4C(F)(F)F)C3)nc(N3CCN(CC4CCCCC4)CC3)nc2s1
3. CCCc1cc2c(N3CCn4c(nnc4C(F)(F)F)C3)nc(-c3nc(CC(OC)OC)no3)nc2s1
4. CCCc1cc2c(N3CCn4c(nnc4C(F)(F)F)C3)nc(SCc3ccccc3)nc2s1

Return:
400
1170
420
700

---

# target under test: Human P2Y12 receptor (Homo sapiens, UniProt Q9H244)
# Construct: expressed in transfected cells; host or cells: HEK cells
# Sequence (Q9H244 whole entry): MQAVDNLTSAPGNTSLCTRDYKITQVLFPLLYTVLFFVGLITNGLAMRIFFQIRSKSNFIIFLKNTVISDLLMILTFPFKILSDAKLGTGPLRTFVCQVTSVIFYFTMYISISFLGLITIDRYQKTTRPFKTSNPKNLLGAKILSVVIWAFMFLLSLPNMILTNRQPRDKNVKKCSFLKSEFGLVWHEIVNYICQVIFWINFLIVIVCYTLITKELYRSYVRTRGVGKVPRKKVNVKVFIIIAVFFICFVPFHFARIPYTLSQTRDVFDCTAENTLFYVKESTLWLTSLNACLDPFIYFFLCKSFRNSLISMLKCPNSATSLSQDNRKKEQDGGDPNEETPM
# experiment summary: Human P2Y12 receptor cell membrane binding assay with [3H] 2-Mes-ADP
# protocol conditions: 1 nM [3H] 2-Mes-ADP, membranes of HEK cells expressing P2Y12 receptor; read-out: Binding activity (IC50)
metric name: IC50 (µM)
Numbers only, in µM.

Below, 5 compounds whose answers are already recorded.
Enquiry: Would you mind telling me what IC50 value was observed for CCCc1cc2c(N3CCn4c(nnc4C(F)(F)F)C3)nc(OCCNC(=O)c3ccccn3)nc2s1 [Example 3-70] ?
Return: 0.017

Enquiry: Would you mind telling me what IC50 value was observed for CCCc1cc2c(N3CCn4c(nnc4C(F)(F)F)C3)nc(OCCNS(C)(=O)=O)nc2s1 [Example 3-64] ?
Return: 0.11

Enquiry: Would you mind telling me what IC50 value was observed for CCCc1cc2c(N3CCn4c(nnc4C(F)(F)F)C3)nc(OCCNS(=O)(=O)C3CC3)nc2s1 [Example 3-68] ?
Return: 0.14

Enquiry: Would you mind telling me what IC50 value was observed for CCCc1cc2c(N3CCn4c(nnc4C(F)(F)F)C3)nc(C3=N[C@H](CC(=O)OC(C)C)CS3)nc2s1 [Example 4-48] ?
Return: 0.21

Enquiry: Would you mind telling me what IC50 value was observed for CCCc1cc2c(N3CCn4c(nnc4C(F)(F)F)C3)nc(-c3nnc(CC4CCCCC4)o3)nc2s1 [Example 4-43] ?
Return: 0.147

Hi! Can you tell me IC50 for each of these compounds?
1. CCCc1cc2c(N3CCn4c(nnc4C(F)(F)F)C3)nc(N3CCN(c4ccc(O)cc4)CC3)nc2s1 [Example 1-38]
2. CCCc1cc2c(N3CCn4c(nnc4C(F)(F)F)C3)nc(OCCO)nc2s1 [Example 3-3]
3. CCCc1cc2c(N3CCn4c(nnc4C(F)(F)F)C3)nc(Nc3ccccc3)nc2s1 [Example 1-36]

Return:
1: 0.1; 2: 0.113; 3: 0.17

---

# target under test: Human P2Y12 receptor (Homo sapiens)
# Construct: expressed in transfected cells; host or cells: HEK cells
# experiment summary: Human P2Y12 receptor cell membrane binding assay with [3H] 2-Mes-ADP
# protocol conditions: 1 nM [3H] 2-Mes-ADP, membranes of HEK cells expressing P2Y12 receptor; read-out: Binding activity (IC50)
Rule for this label: label 1 means IC50 is less than 0.3 µM; label 0 means IC50 is at least 0.3 µM.

Enquiry: Below 0.3 µM on IC50? Entry CCCc1cc2c(N3CCn4c(nnc4C(F)(F)F)C3)nc(N3CCCC(C(=O)O)C3)nc2s1 (stereo not drawn) [Example 1-46]
Return: label 1

Enquiry: Below 0.3 µM on IC50? Entry CCCc1cc2c(N3CCn4c(nnc4C(F)(F)F)C3)nc(NCCOCCO)nc2s1 [Example 1-123]
Return: label 1

Enquiry: Below 0.3 µM on IC50? Entry CCc1cc2c(N3CCc4[nH]nc(C(F)(F)F)c4C3)nc(N3CCNC(=O)C3)nc2s1 [Example 6-26]
Return: label 0

Enquiry: Below 0.3 µM on IC50? Entry CCc1cc2c(N3CCn4c(nnc4C(F)(F)F)C3)nc(NCCN)nc2s1 [Example 2-8]
Return: label 0

Enquiry: Below 0.3 µM on IC50? Entry CCCc1cc2c(N3CCn4c(nnc4C(F)(F)F)C3)nc(-c3nnc(-c4ccccc4)o3)nc2s1 [Example 4-33]
Return: label 1

Enquiry: Below 0.3 µM on IC50? Entry CCCc1cc2c(N3CCn4c(C)nnc4C3)nc(OCCO)nc2s1 [Example 6-16]
Return: label 0

Further cases:
Enquiry: Below 0.3 µM on IC50? Entry CCCc1cc2c(N3CCn4c(nnc4C(F)(F)F)C3)nc(NC3CCCC3)nc2s1 [Example 1-31]
Return: label 1

Enquiry: Below 0.3 µM on IC50? Entry CCc1cc2c(N3CCn4c(nnc4C(F)(F)F)C3)nc(N3CCNCC3)nc2s1 [Example 2-7]
Return: label 1

Enquiry: Below 0.3 µM on IC50? Entry CCCc1cc2c(N3CCn4c(nnc4C(F)(F)F)C3)nc(C(=O)NCC(O)CO)nc2s1 (stereo not drawn) [Example 4-10]
Return: label 0

Enquiry: Below 0.3 µM on IC50? Entry CCCc1cc2c(N3CCn4c(nnc4C(F)(F)F)C3)nc(Oc3ccc(C#N)cc3)nc2s1 [Example 3-38]
Return: label 1

Enquiry: Below 0.3 µM on IC50? Entry CCc1cc2c(N3CCn4c(nnc4C(F)(F)F)C3)nc(OCC(O)CO)nc2s1 (stereo not drawn) [Example 3-49]
Return: label 0

Enquiry: Below 0.3 µM on IC50? Entry CCCc1cc2c(N3CCn4c(nnc4C(F)(F)F)C3)nc(Oc3cccc(C#N)c3)nc2s1 [Example 3-37]
Return: label 1

Enquiry: Below 0.3 µM on IC50? Entry CCc1nc2c(N3CCn4c(nnc4C(F)(F)F)C3)nc(N3CCN(C)CC3)nc2s1 [Example 5-3]
Return: label 0

Enquiry: Below 0.3 µM on IC50? Entry CCCc1cc2c(N3CCn4c(nnc4C(F)(F)F)C3)nc(N3CCNc4ncccc43)nc2s1 [Example 1-134]
Return: label 0
